Test system: B2M
PROTOCOL SUMMARY: Targeted PCR and NGS (amplicon sequencing) of on-target and off-target sites in genome-edited LSCs
Type: cell-based, human
CONDITION CONTEXT: purified (B2M negative) LSC populations
MEASURED QUANTITY: B2M purified rhAmpSeq indel (%)
Numeric answer only, unit % assumed.

Please report the recorded B2M purified rhAmpSeq indel for CR000442: gRNA targeting human B2M; targeting domain SEQ ID NO: 134; sgRNA SEQ ID NO: 171 (nucleic acid, listed as RNA, chemistry not given here) guide: GGCCACGGAGCGAGACAUCUGUUUUAGAGCUAGAAAUAGCAAGUUAAAAUAAGGCUAGUCCGUUAUCAACUUGAAAAAGUGGCACCGAGUCGGUGCUUUU .
99.10
